system.under.test: T1, UNK ZnF1-3 (human, UniProt Q9C0B0 31-174)
T1 sequence: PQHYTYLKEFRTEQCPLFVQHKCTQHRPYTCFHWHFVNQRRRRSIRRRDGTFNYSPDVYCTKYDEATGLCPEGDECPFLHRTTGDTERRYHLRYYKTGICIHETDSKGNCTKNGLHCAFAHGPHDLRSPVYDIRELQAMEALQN
protocol.notes: nsRBNS (natural sequence RNA bind-n-seq); RBNS binding buffer (assumed for nsRBNS): 25 mM Tris pH 7.5, 150 mM KCl, 3 mM MgCl2, 0.01% Triton X-100, 500 ug/ml BSA, 20 U/ml SUPERase-In, 4 C; UNK is unkempt and MSI1 is Musashi-1; names of the RNAs are library labels; protein concentration not given here; high values mean tight binding
The full ranking holds about 24,000 sequences; the median of “enrichment r” is about 0.99, and the highest 2% start at about 3.7. The sample holds the highest values, similar sequences and a random draw of the others, so the mix is not that of the screen.
quantity: binding signal (enrichment R)
Output spec: scalar in enrichment R, unitless text.

chr17:56552419:56552420:-_ENSMUSG00000013236_ENSMUST00000086828|mus_mus|mus_mus_mus_hu_False|1_98 (ssRNA) RNA: GGGAGUUCUACAGUCCGACGAUCAAAAAAUACACUAUAAAAAAAAAAUGAAAUGUCACGGGAUACAGUUACACUGAGAGUUUUAAAAGAAAGCUGGAUUCUGGUCCCAGCCCAGUGUCCCCAGGCUGCAGAGCGGGGCAGAGGCAACAGAGGAUUGAGCAUCA: 5.8

Next binder, binding signal to be filled in.
The reported binding signal of the binder chr16:732453:732454:+_ENSG00000103266_ENST00000219548|hu_mus|FALSE|FALSE (ssRNA) RNA: GGGAGUUCUACAGUCCGACGAUCUGCCAGGCAGGACAUGGGGCCUCAAUAGUCCUCUACCCAGCCGUUCUCAGAGAUGAAAGCGUCAAUGACUUCCUUCAUGGCCAAGUUGGGGAUGAGCUGUUCCUGGGUCAGAGGGCUCCGCAACAGAGGAUUGAGCAUCA was 1.44

Values from paper PMC12136788
